Entry source: ChEMBL document CHEMBL1201862

What AC50 was measured for each of the following?

Input line: Cytochrome P450 1A2 (Homo sapiens, UniProt P05177) / AC50 / CCCC[C@@H]1C[C@H]1C(NC(=O)c1ccccc1)c1ccc(-c2ccccc2)cc1 (some centres not stated) : value?
Output line: 0.501 µM (inconclusive)

Input line: Cytochrome P450 1A2 (Homo sapiens, UniProt P05177) / AC50 / COCCN1C(=O)C(O)=C(C(=O)c2cccc(OC)c2)C1c1ccc(C)o1 (configuration not stated) : value?
Output line: 12.6 µM (inconclusive)

Input line: Cytochrome P450 1A2 (Homo sapiens, UniProt P05177) / AC50 / Cc1cc(NC(=O)c2cc(C(C)C)on2)no1 : value?
Output line: 20 µM (inconclusive)

Input line: Cytochrome P450 1A2 (Homo sapiens, UniProt P05177) / AC50 / O=C(c1csnn1)N1CCC2(CC1)CCN(c1ccccc1)CC2 : value?
Output line: 15.8 µM (inconclusive)

Input line: Cytochrome P450 1A2 (Homo sapiens, UniProt P05177) / AC50 / [H]/N=C(\N/C(=N/[H])NCCCCCCNC(=N)NC(=N)Nc1ccc(Cl)cc1)Nc1ccc(Cl)cc1 : value?
Output line: 15.8 µM (inconclusive)

Input line: Cytochrome P450 1A2 (Homo sapiens, UniProt P05177) / AC50 / CN(C)c1ncc2nc(-c3cc(F)cc(F)c3)c(=O)n(-c3ccccc3)c2n1 : value?
Output line: 0.316 µM (inconclusive)

Input line: Cytochrome P450 1A2 (Homo sapiens, UniProt P05177) / AC50 / CN(C)C(=O)c1ccc(-c2ccc3ncnc(N4CCC(C(=O)O)CC4)c3c2)cc1 : value?
Output line: 39.8 µM (inconclusive)
